- system_under_test: hFZD7 CRD-Fc (human, UniProt O75084 33-185)
- assay_name: spot phage ELISA
The binders listed here are annotated with their S/N.
value_kind: S/N

binder	value_kind	test_result
LPADDLAFWCDVMY [SEQ ID NO 92]	S/N	23.8
APSDDLAFWCDVMY [SEQ ID NO 91]	S/N	27.4
VPSADLESWCHVMY [SEQ ID NO 69]	S/N	52.2
AAADDVASWCHVMY [SEQ ID NO 87]	S/N	44.5
